system: PPARg:RXRa 270nM:90nM, anti-RXR (NR concentration 270 nM, RXRa partner concentration 90 nM); experiment: PBM binding z-score (relative to random genomic background probes); higher = stronger binding; sequences stand for … in GC…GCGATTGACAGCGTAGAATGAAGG
Label satisfied when PBM binding z-score is at or above 1; anything below gets not satisfied.

Hello, I need to know if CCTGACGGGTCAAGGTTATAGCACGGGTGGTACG has measured PBM binding z-score not below 1. Thanks!
satisfied

Is the recorded value of PBM binding z-score equal to or greater than 1 for this sequence? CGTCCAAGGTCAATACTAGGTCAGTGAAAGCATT
satisfied

Answer whether PBM binding z-score of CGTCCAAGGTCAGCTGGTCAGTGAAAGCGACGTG is greater than or equal to 1.
satisfied

Determine whether measured PBM binding z-score meets or exceeds 1 for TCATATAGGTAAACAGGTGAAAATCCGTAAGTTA
satisfied

PBM binding z-score >= 1 for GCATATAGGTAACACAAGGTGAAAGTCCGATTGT ?
satisfied

Check the entry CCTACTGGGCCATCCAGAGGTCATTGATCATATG : does PBM binding z-score equal or exceed 1?
satisfied

Exam item: decide whether the reported PBM binding z-score for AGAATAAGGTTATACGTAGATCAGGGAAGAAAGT is at least 1.
satisfied

Confirm if PBM binding z-score reported for the sequence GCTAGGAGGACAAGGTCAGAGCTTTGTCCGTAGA is 1 or above.
satisfied

# check: PBM binding z-score of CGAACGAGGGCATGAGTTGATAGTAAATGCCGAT is greater than or equal to 1
satisfied

Textbook exercise: given the entry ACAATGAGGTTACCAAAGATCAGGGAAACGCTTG , state whether its PBM binding z-score is greater than or equal to 1.
satisfied

State whether the measured PBM binding z-score reaches 1, counting equality as reaching it, for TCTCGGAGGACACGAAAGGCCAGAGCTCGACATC
not satisfied

Does PBM binding z-score meet or surpass 1 for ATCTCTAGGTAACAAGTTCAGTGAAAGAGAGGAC ?
satisfied

====

test system: PXR homodimer (NR concentration 270 nM); assay: PBM binding z-score (relative to random genomic background probes); higher = stronger binding; sequences stand for … in GC…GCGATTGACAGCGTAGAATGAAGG
What PBM binding z-score was measured for each of the following?

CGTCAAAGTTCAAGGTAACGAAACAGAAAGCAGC	2.79
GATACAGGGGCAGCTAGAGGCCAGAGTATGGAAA	-0.216
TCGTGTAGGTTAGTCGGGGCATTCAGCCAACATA	0.707

Batch request: PBM binding z-score for each of the following sequences.
1. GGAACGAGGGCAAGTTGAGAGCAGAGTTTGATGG
2. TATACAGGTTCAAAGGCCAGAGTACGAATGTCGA
3. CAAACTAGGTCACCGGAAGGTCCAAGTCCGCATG
4. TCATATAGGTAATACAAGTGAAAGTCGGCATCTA
5. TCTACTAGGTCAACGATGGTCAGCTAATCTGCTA

0.275
1.35
-0.0607
0.336
0.246

====

system: PPARg:RXRa IVT, anti-PPARg (NR concentration 270 nM, RXRa partner concentration 90 nM); assay: PBM binding z-score (relative to random genomic background probes); higher = stronger binding; sequences stand for … in GC…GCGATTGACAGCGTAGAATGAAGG
// classify(record): look up PBM binding z-score in ranges A = under 0.4, B = from 0.4 up to 5, C = 5 and over

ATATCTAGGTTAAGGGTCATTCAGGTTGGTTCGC	C
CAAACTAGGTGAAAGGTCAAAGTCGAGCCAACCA	C
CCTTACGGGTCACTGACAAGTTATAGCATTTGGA	B
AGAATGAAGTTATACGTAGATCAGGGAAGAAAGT	A
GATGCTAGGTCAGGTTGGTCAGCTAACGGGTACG	B
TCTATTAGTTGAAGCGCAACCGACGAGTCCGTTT	A
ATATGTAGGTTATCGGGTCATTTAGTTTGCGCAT	C
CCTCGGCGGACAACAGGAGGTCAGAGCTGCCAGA	A
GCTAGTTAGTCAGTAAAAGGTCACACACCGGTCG	B
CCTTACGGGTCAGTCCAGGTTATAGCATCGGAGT	B

Okay, now this sequence:
Which PBM binding z-score band matches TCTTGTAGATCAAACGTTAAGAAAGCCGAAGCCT ?
A

====

system: PXR:RXRa (NR concentration 270 nM, RXRa partner concentration 90 nM); assay: PBM binding z-score (relative to random genomic background probes); higher = stronger binding; sequences stand for … in GC…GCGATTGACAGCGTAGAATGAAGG
Use Met when the recorded PBM binding z-score is no lower than 2; use Not met when it is lower.

Record excerpt, results attached:
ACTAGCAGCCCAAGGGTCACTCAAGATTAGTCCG	Met
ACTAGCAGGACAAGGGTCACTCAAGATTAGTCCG	Met
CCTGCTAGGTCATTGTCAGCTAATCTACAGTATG	Not met
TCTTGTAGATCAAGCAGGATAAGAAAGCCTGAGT	Not met
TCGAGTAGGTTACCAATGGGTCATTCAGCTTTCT	Not met

Say whether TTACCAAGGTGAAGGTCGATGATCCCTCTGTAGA shows PBM binding z-score of 2 or more.
Not met

Check if PBM binding z-score >= 2 (inclusive). Item: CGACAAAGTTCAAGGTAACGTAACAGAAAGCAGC
Met

hey, is PBM binding z-score for this one >= 2? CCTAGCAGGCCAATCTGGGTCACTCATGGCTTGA
Not met

Given the entry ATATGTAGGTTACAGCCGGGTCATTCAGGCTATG , answer whether its PBM binding z-score meets or surpasses 2.
Met

Determine whether measured PBM binding z-score meets or exceeds 2 for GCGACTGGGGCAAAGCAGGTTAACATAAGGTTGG
Not met

Has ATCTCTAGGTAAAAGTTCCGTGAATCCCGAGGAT a recorded PBM binding z-score greater than or equal to 2?
Not met

====

tested on: RARa:RXR (NR concentration 270 nM, RXRa partner concentration 90 nM); test: PBM binding z-score (relative to random genomic background probes); higher = stronger binding; sequences stand for … in GC…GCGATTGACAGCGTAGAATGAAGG
# PBM binding z-score binned as bucket A: < 0.4; bucket B: ≥ 0.4 and < 3; bucket C: ≥ 3

Here's what some known entries look like.
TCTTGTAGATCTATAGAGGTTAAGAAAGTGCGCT	bucket B
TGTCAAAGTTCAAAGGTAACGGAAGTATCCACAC	bucket C
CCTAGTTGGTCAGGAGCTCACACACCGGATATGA	bucket A
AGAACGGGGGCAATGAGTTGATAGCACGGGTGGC	bucket B
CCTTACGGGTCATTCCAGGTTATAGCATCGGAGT	bucket C

Given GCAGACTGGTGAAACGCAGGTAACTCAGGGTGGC , name the class its PBM binding z-score places it in.
bucket A

For this sequence, which bin applies? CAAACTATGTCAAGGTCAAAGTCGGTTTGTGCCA
bucket C

Category of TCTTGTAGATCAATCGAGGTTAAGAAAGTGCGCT :
bucket B

Using the reported PBM binding z-score, which band applies to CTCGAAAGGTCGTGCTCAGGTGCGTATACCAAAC ?
bucket C

Where would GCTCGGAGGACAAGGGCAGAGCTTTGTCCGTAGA land among the classes by reported PBM binding z-score?
bucket A

====

system: VDR homodimer (NR concentration 270 nM); assay: PBM binding z-score (relative to random genomic background probes); higher = stronger binding; sequences stand for … in GC…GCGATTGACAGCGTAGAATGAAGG
EXPERIMENTAL READOUT: PBM binding z-score
Give bare numbers.

Example sequences with recorded PBM binding z-score:
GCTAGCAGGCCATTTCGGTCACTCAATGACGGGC	-0.487
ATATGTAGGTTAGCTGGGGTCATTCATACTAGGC	4.81

State recorded PBM binding z-score for all listed sequences.
1. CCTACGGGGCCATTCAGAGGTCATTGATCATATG
2. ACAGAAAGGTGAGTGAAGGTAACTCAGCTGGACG
3. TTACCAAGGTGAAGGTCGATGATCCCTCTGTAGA

[4.91, -0.509, 0.0587]

For every item below, please supply its PBM binding z-score.
1. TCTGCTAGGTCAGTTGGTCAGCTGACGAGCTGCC
2. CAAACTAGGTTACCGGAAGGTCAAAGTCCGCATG

1. -1.1
2. 2.56

Count: 5. Required value per item: PBM binding z-score.
1. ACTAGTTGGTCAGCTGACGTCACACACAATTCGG
2. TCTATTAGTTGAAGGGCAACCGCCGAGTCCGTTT
3. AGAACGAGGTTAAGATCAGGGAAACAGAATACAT
4. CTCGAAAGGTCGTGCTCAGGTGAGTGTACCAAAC
5. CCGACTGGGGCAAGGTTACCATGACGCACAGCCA

1: -0.472; 2: 1.86; 3: 0.771; 4: 1.26; 5: -0.0501

Batch of 7 sequences: report PBM binding z-score for each.
1. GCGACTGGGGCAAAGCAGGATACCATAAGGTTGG
2. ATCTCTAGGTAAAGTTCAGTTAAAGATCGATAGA
3. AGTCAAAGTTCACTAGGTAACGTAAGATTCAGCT
4. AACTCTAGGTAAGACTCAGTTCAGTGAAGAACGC
5. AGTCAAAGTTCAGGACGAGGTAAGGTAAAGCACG
6. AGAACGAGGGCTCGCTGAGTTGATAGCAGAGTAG
7. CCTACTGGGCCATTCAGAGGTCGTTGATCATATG

1: -0.417; 2: 2.04; 3: 3.29; 4: 1.15; 5: 2.09; 6: -0.176; 7: 2.12

# batch: return PBM binding z-score for each of the 5 sequences below
1. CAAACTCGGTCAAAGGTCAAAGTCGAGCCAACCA
2. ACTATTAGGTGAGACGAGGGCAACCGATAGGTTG
3. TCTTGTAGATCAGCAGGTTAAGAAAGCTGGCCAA
4. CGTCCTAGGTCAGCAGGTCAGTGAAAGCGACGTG
5. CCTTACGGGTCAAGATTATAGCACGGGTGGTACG

[3.31, 1.07, -0.371, 0.285, 0.658]

Value sought for every listed sequence: PBM binding z-score.
1. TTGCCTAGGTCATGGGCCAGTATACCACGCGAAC
2. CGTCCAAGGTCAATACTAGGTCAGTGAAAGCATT

0.622
2.44

Values from the supplement of paper PMC6555819
